Measurement label: melting point (°C)

Cc1cc(O)ccc1[N+](=O)[O-] | 128
NCCOP(=O)(O)O | 242
Ic1nccn1C(c1ccccc1)(c1ccccc1)c1ccccc1 | 171

A. BrCCC(c1ccccc1)c1ccccc1
B. O=C1NC(=O)C(=Cc2ccccc2)N1
C. Fc1nc(F)nc(F)n1
# input // smallest melting point at index 0, largest at the end Form entry: ranked labels (order as requested).
# output C, A, B
(C: -38 °C, A: 41 °C, B: 222 °C)

* * *

Measurement label: melting point (°C)

The cases that follow already have their melting point on record.
O=C(O)c1nnn(Cc2ccccc2)c1C(=O)O | 180
CCN(CC)c1ccccc1C | -60
O=C(Cl)C=Cc1ccccc1 | 36

1. NC(=O)/C(=N\Nc1ccc(O)cc1)c1nc2ccccc2s1
2. O=C1C(Br)=C(c2ccccc2)c2ccccc21
3. CCC(N)CO (stereo unspecified)
# input // smallest melting point at index 0, largest at the end Form entry: ranked labels (order as requested).
# output 3, 2, 1

* * *

Measurement label: melting point (°C)

A. O=C(Cl)c1cc(Cl)cc(Cl)c1
B. Cc1cc(C(F)(F)F)n2nc(N)c(/N=N/c3ccc4ccccc4c3)c2n1
C. O=Cc1ccc(O)c(F)c1
D. CC1CC(=O)C(C)(C)C1 (configuration not stated)
# input Ranking field: melting point; order: falling. Form entry: ranked labels (order as requested).
# output B, C, A, D
(B: 246 °C, C: 123 °C, A: 40 °C, D: -40.6 °C)

P. CC1OC(=O)C(C)OC1=O (racemic)
Q. O=Cc1ccc2c(Br)cccc2c1
# input Lab note: record which item had the higher melting point, P or Q . Lab log: write the label of the selected item as the result.
# output P

* * *

Measurement label: melting point (°C)

CCCCOC(=O)c1ccccc1C(=O)O | 73.5
CC(=O)c1c(O)c(C)c(O)c2c1OC1=CC(=O)C(C(C)=O)C(=O)C12C (centres undefined) | 204
O=C1CCC(=O)N1CCO | 60

A. CC(C)(C)C(Br)Br
B. N#C/C(=N/Nc1cc(Cl)ccc1Cl)c1nc(-c2ccccc2)cs1
C. COc1cc(O)ccc1Br
D. CC1(C)OC2CC3C4CC(F)C5=CC(=O)C=CC5(C)C4(F)C(O)CC3(C)C2(C(=O)CO)O1 (centres undefined)
E. c1ccc(CNc2ccccc2)cc1
# input Given 5 molecules, produce a descending ranking by melting point. Form entry: ranked labels (order as requested).
# output D, B, C, E, A
(D: 266 °C, B: 133 °C, C: 79 °C, E: 37.5 °C, A: 14 °C)

1. COc1c(Cl)c(C)c2c(c1Cl)OC(=O)c1c(C)c(Cl)c(O)c(Cl)c1O2
2. O=Cc1cc(Cl)cc(Br)c1O
3. COc1ccc(OC)c(/C=N/n2c(S)nnc2C(F)(F)F)c1
4. CCc1c(C)c[nH]c1C
# input // smallest melting point at index 0, largest at the end Form entry: ranked labels (order as requested).
# output 4, 2, 3, 1

A. Cc1cc(C)c(C)c(O)c1C
B. CC1CC2C(C(O)CC3(C)C2CCC3(O)C(=O)CO)C2(C)C=CC(=O)C=C12 (centres undefined)
# input Lab note: record which item had the higher melting point, A or B . Lab log: write the label of the selected item as the result.
# output B

I. Clc1ncnc2sccc12
II. CC(=O)Nc1cc(NC(C)=O)c(C=Cc2ccccc2)c(NC(C)=O)c1C=Cc1ccccc1
# input Which entry shows the lesser value of melting point here, I or II ? Lab log: write the label of the selected item as the result.
# output I

P. C=C(C)C(=O)OCCOC(=O)c1cc([N+](=O)[O-])cc([N+](=O)[O-])c1
Q. Nc1nc(N)nc(-c2cc(Cl)ccc2Cl)n1
R. CCCCCCCCc1ccc(NC(=O)c2ccc(C)cc2)cc1
# input // smallest melting point at index 0, largest at the end Form entry: ranked labels (order as requested).
# output P, R, Q

I. CCc1c(C)ccc2c1CCC1C2CCC2CC(O)CCC21C (centres undefined)
II. CC1(C(=O)O)CC2C=CC1C2 (centres undefined)
# input Lab note: record which item had the higher melting point, I or II . Lab log: write the label of the selected item as the result.
# output I
(I: 172 °C, II: 80 °C)

A. OCc1cc(C(F)(F)F)ccc1Cl
B. Cc1cc(NS(=O)(=O)c2ccc(N)cc2)sn1
# input Which entry shows the lesser value of melting point here, A or B ? Lab log: write the label of the selected item as the result.
# output A
(A: 59 °C, B: 192 °C)

* * *

Measurement label: melting point (°C)

CCOC(O)C(OC(C)=O)C(OC(C)=O)C(OC(C)=O)C(COC(C)=O)OC(C)=O (stereo unspecified) | 132

P. COc1cc(C2Nn3c(nnc3-c3ccccc3OC)S2)ccc1O (stereo unspecified)
Q. N#Cc1c(N=[N+]([O-])c2cnn(-c3ccccc3)c2C#N)cnn1-c1ccccc1
# input Lab note: record which item had the higher melting point, P or Q . Lab log: write the label of the selected item as the result.
# output Q

* * *

Measurement label: melting point (°C)

CCOC(=O)c1c(Cl)c(Cl)c(Cl)c(Cl)c1C(=O)O | 94.5
Brc1ccc2[nH]c3ccc(Br)cc3c2c1 | 212
COC(=O)C1c2ccccc2C(=O)OC1c1ccc([N+](=O)[O-])cc1 (stereo unspecified) | 134
CCCCCCNC(=O)n1cc(F)c(=O)[nH]c1=O | 110

* * *

Measurement label: melting point (°C)

CCCCCCCCOC(=O)CCCCC | -28
O=C1OC(=O)c2cc([N+](=O)[O-])ccc21 | 115
O=C(Oc1cccc([N+](=O)[O-])c1)c1ccccc1 | 95
COc1ccc(OC)c(C(=O)CCCCC(=O)O)c1 | 76
Oc1cc(F)c(F)c(F)c1 | 54
N#C/C(=N/Nc1ccccc1)c1nc(-c2ccc(Cl)cc2)cs1 | 178
CCCCC(CC)CN (stereo unspecified) | -76
CC(C(=O)O)=C(C)c1cccc(C)c1 | 163
O=[N+]([O-])c1ccccc1C=Cc1cc(/C=C/c2ccccc2[N+](=O)[O-])c([N+](=O)[O-])cc1[N+](=O)[O-] | 291
CCOC(=O)NN | 46

a. O=C1C=CC2=CC(=O)C=CC2=C1
b. CC(C)=C1OC(=O)C1(C)C
# input Lab note: record which item had the higher melting point, a or b . Lab log: write the label of the selected item as the result.
# output a
(a: 132 °C, b: -18 °C)

* * *

Measurement label: melting point (°C)

The cases that follow already have their melting point on record.
CSc1nc2[nH]c(Cc3ccccc3)nc(=O)c2n1C | 286
COC(=O)[C@@H]1C[C@@H]2CCCN2[C@@]12C(=O)c1cccc3cccc2c13 | 145
CCC(Oc1ccccc1)C(=O)O (stereo not drawn) | 81
Cc1cccc(F)c1 | -87
Cc1ccc(CBr)cc1 | 35

A. CC1(C(=O)O)CCC2(C)CCC3(C)C(=CC(=O)C4C5(C)CCC(O)C(C)(C)C5CCC43C)C2C1 (stereo not drawn)
B. Cn1cnc(C#N)c1C#N
C. C#CCCCCCCCCCCCC
D. CC(C)NCC(O)c1ccc(O)c(O)c1 (stereo not drawn)
# input // smallest melting point at index 0, largest at the end Form entry: ranked labels (order as requested).
# output C, B, D, A
(C: 0 °C, B: 85 °C, D: 170 °C, A: 296 °C)

* * *

Measurement label: melting point (°C)

Cc1nc(CO)c(C)o1 | 73
CCN(CC)CCC#N | -64

I. CC(C)NCCCC1(C(N)=O)c2ccccc2-c2ccccc21
II. CCOC(=O)C1=C(C)NC(=O)NC1c1ccccc1Cl (configuration not stated)
III. O=S(=O)(Cl)c1ccc(C(F)(F)F)cc1Cl
IV. O=Cc1cc([N+](=O)[O-])ccc1F
V. CCCCC=CC(=O)O
# input // smallest melting point at index 0, largest at the end Form entry: ranked labels (order as requested).
# output V, III, IV, I, II
(V: -19 °C, III: 37 °C, IV: 58 °C, I: 94.5 °C, II: 217 °C)

P. N[C@H](CCO)C(=O)O
Q. Nc1ccc(I)cc1
# input Which entry shows the lesser value of melting point here, P or Q ? Lab log: write the label of the selected item as the result.
# output Q

I. O=C(O)c1ccnc(C(=O)O)c1
II. CC(CCc1ccc(CCC(C)OC(=O)Nc2ccccc2)cc1)OC(=O)Nc1ccccc1 (configuration not stated)
# input Which entry shows the lesser value of melting point here, I or II ? Lab log: write the label of the selected item as the result.
# output II
(II: 165 °C, I: 249 °C)

* * *

Measurement label: melting point (°C)

The cases that follow already have their melting point on record.
O=C1COC(c2ccc(C(F)(F)F)cc2)CN1 (stereo not given) | 116
COc1ccc(C(=O)C2=NOC3C(=O)N(c4ccc(C(=O)O)cc4)C(=O)C23)cc1 (stereo not given) | 199

1. [N-]=[N+]=Nc1ccccc1-c1ccccc1
2. CCc1ccc(C(c2ccc(C(c3ccc(CC)o3)c3ccc(CC)o3)cc2)c2ccc(CC)o2)o1
3. FC(F)(F)c1nc2ccccc2[nH]1
4. CCCN
5. O=C(c1ccc2ccccc2c1)c1noc(-c2ccc3ccccc3c2)c1S(=O)(=O)c1ccccc1
# input // smallest melting point at index 0, largest at the end Form entry: ranked labels (order as requested).
# output 4, 1, 2, 5, 3

P. O=C(Nc1ccc(Cl)c(Cl)c1)c1cc(Cl)cc(Cl)c1O
Q. N#Cc1ccc(F)cc1Br
# input Lab note: record which item had the higher melting point, P or Q . Lab log: write the label of the selected item as the result.
# output P

1. S=C=Nc1ccc(Cl)cc1Cl
2. O=C1/C(=C/c2ccccc2O)SC(=S)N1CN1CCOCC1
3. CCCSC
4. CC(=O)OC(C)CC(C)C (stereo not given)
# input Given 4 molecules, produce a descending ranking by melting point. Form entry: ranked labels (order as requested).
# output 2, 1, 4, 3
